Tested on: CCRF-CEM leukemia
assayOverview: NCI tumour cell line growth inhibition, 48 h; in the data active = GI50 below about 0.43 µM; inactive = the rest
# output must be one of label 1 for active, label 0 for inactive

A selection of reference data follows.
Nc1ccc(C(OC(=O)c2cc3ccccc3c(Cc3c(O)c(C(=O)OC(c4ccc(N)cc4)(c4ccc(N)cc4)c4ccc(N)cc4)cc4ccccc34)c2O)(c2ccc(N)cc2)c2ccc(N)cc2)cc1 = label 0
CC(C)C[C@H](NC(=O)CCn1ccc2ncccc2c1=O)B(O)O = label 1
C=C1C(OC/C=C/COC2O[C@@H]3O[C@@]4(C)CC[C@H]5[C@H](C)CC[C@@H](C2=C)[C@@]35OO4)O[C@@H]2O[C@@]3(C)CC[C@H]4[C@H](C)CC[C@@H]1[C@@]24OO3 (stereo partly drawn) = label 1

Write down the call the test reported for this compound. Item: "COc1ccc(-c2ccc(-c3ccc(C(=N)N)cn3)o2)cc1Cl"
label 0

Write down the call the test reported for this compound. Item: "Cc1ncc(C(=O)Nc2ccc(CN3CCN(C)CC3)c(C(F)(F)F)c2)cc1C#Cc1c(N)ncc2ccccc12"
label 0

Write down the call the test reported for this compound. Item: "O=C(N/N=C/c1ccc(Cl)cc1Cl)c1ccc2nc(-c3ccc(Cl)cc3)[nH]c2c1"
label 0

Write down the call the test reported for this compound. Item: "Clc1ccc(CNc2nccc(-c3cnn4ncccc34)n2)cc1"
label 0

Write down the call the test reported for this compound. Item: "NCCCN1CCN(CCCNc2nc3ccccc3c3[nH]c4ccccc4c23)CC1"
label 1

---

System: A549 NSCLC
assayOverview: NCI tumour cell line growth inhibition, 48 h; in the data active means GI50 below about 0.43 µM; inactive means the rest
# output must be one of YES (active), NO (inactive)

A selection of reference data follows.
O=C(N/N=C/c1ccc(Cl)cc1Cl)c1ccc2nc(-c3ccc(Cl)cc3)[nH]c2c1 = NO
COc1ccc(-c2cc(-c3cccc(NS(C)(=O)=O)c3)nc(N)c2C#N)cc1 = YES
Fc1ccc2c(c1)C1=C(CO2)C(c2ccc(Cl)cc2)NC(=S)N1 (stereo not given) = NO
COc1cccc(CCC(=O)c2cc3c(N)c(C(=O)Nc4cccc(Cl)c4C)sc3nc2C)c1 = NO

Now examine the next entry.
Write down the call the test reported for this molecule. Item: "CCNNC(=O)[C@@H]1[C@H](c2cc(OC)c(OC)c(OC)c2)c2cc3c(cc2[C@H](O)[C@H]1CO)OCO3"
YES

---

The following compounds are shown together with reported TGI values.
Tested on: DU-145 prostate
assayOverview: NCI tumour cell line growth inhibition, 48 h

Record excerpt, results attached:
Clc1cc(-c2ccccc2)nc2ccccc12 = > 100 µM
COc1ccc([C@]23CCN4COC[C@@H]([C@H]42)C2(CC3)OCC(C)(C)CO2)cc1OC = > 100 µM
CCCCCN(CCCCC)CC(C)(C)C(O)c1ccc(OC)c2ccccc12 (stereo unspecified) = 28.2 µM

For "CCOC(=O)C(=CN1CCNC1=S)C(=O)OCC" , write its TGI.
> 100 µM

For COCC12CCC(OC)C34C5CC6(O)C(OC)CC(OC(C)=O)(C5C6OC(=O)c5ccccc5)C(C(OC)C13)C4N(C)C2 (stereo unspecified) , write its TGI.
> 100 µM

For COC1(c2cccs2)c2ccccc2C(OC)(c2cccs2)c2ccccc21 (stereo unspecified) , write its TGI.
> 100 µM

---

System: PC-3 prostate
assayOverview: NCI tumour cell line growth inhibition, 48 h; in the data active = GI50 below about 0.43 µM; inactive = the rest
# output must be one of active, inactive

NS(=O)(=O)c1ccc(-n2ncc3c(Nc4ccccc4)ncnc32)cc1 = inactive
NCCCN1CCN(CCCNc2nc3ccccc3c3[nH]c4ccccc4c23)CC1 = inactive
COc1cc2c3c(n(CCCBr)c(=O)c2cc1OC)-c1ccc(F)cc1C3=O = inactive

Write down the call the test reported for this molecule. Item: "CC(C)C[C@H](NC(=O)[C@H](Cc1cccc2ccccc12)NS(=O)(=O)c1cccc2cccnc12)B(O)O"
active

Write down the call the test reported for this molecule. Item: Fc1ccc2c(c1)C1=C(CO2)C(c2ccc(Cl)cc2)NC(=S)N1 (stereo not drawn)
inactive

Write down the call the test reported for this molecule. Item: "COc1ccc2c(c1)c(-c1ccc(-c3cn(C)c4ccc(OC)cc34)[nH]1)cn2C"
inactive

Write down the call the test reported for this molecule. Item: "Cc1cc(C)c(S(=O)(=O)N(CCc2cccc(Br)c2)Cc2ccc(-c3cccc(S(C)(=O)=O)c3)cc2)c(C)c1"
inactive

Write down the call the test reported for this molecule. Item: Nc1nccc2c1ncn2C1OC(CO)C(O)C1O (stereo not drawn)
inactive

---

The following compounds are shown together with reported TGI values.
Test system: NCI/ADR-RES ovarian
assayOverview: NCI tumour cell line growth inhibition, 48 h

Record excerpt, results attached:
OCC(CCc1c[nH]c2ccccc12)c1c[nH]c2ccccc12 (configuration not stated) = 44.1 µM
CN[C@@H](C)[C@@H](O)c1ccccc1 = > 100 µM
COC(=O)c1cccc(OC)c1C#Cc1c(OC)cccc1OC = > 100 µM
COc1cc(F)c(/C=C/c2cc(/C=C/c3cc(OC)c(OC)cc3F)n(-c3cc(F)cc(F)c3)n2)cc1OC = 5.65 µM
CN(C)CCCCn1ccc2c1C(=O)c1c(c(O)c3ccccc3c1O)C2=O = 27.5 µM
Cc1cc(O)cc(O)c1C(=O)O[C@]1(C)C(=O)C=C2C=C(/C=C/C(=O)O)OC=C2C1=O = > 100 µM
O=S(=O)(NC1=NCCN1C(=S)SN1CCn2c1nsc2=S)c1ccccc1Cl = > 100 µM
C=C1C(=O)OC2/C=C(\CO)CC/C=C(\CO)CC(OC(=O)C(C)C)C12 (configuration not stated) = 45.3 µM

For "Cc1c2ccccc2c(C)n2c1nc1ccccc12" , write its TGI.
39.5 µM

For "COc1ccc(-c2ccc(-c3ccc(C(=N)N)cn3)o2)cc1Cl" , write its TGI.
8.09 µM

For COc1ccc(C2SCC(=O)N2NC(=O)C(C)Oc2ccccc2C)cc1 (configuration not stated) , write its TGI.
> 100 µM

For CC(=O)OC(C)c1cc2c(s1)C(=O)c1c(C(C)OC(C)=O)csc1C2=O (configuration not stated) , write its TGI.
3.62 µM

For "COc1cc(CCN(C)C)cc(OC)c1OC" , write its TGI.
> 100 µM

For "COc1ccc2c(c1)c1nn(CCN3CCCCC3)c3ccc4c(=O)n(CCN(C)C)c(=O)n2c4c13" , write its TGI.
1.91 µM

For COc1cc2c(cc1OC)[C@@](C)(C(O)C(O)C(C)(C)O)NCC2 (some centres not stated) , write its TGI.
> 100 µM

For "COc1c(Cl)ccc2c(-c3nc4cc(Cl)c(F)cc4s3)cc(=O)oc12" , write its TGI.
> 100 µM

For "N[C@H](CCC(=O)NCP(=O)(O)O)C(=O)O" , write its TGI.
> 100 µM

For O=[N+]([O-])c1ccc(N2N=C(c3ccc4ccccc4c3O)CC2c2ccc(Cl)cc2)c([N+](=O)[O-])c1 (configuration not stated) , write its TGI.
> 100 µM

For COc1ccc2c(c1)CCN1CCCc3ccccc3C21 (configuration not stated) , write its TGI.
> 100 µM

---

Test system: HOP-18 NSCLC
assayOverview: NCI tumour cell line growth inhibition, 48 h
assayMetric: TGI

Record excerpt, results attached:
CC1(C(=O)O)CCOc2ccccc21 (stereo unspecified) = > 100 µM
CCN(CC)CCOC(=O)Cc1cccc2c(=O)cc(-c3ccccc3)oc12 = > 126 µM
CC(C)CC12CC3CCC(CNC1=O)C32C (stereo unspecified) = > 100 µM
Cc1c(-c2nnc(-c3ccccc3)o2)c(=O)n(-c2ccccc2)n1C = > 100 µM
O=[N+]([O-])c1ccc([N+]2=NC(c3ccccc3)=NN(c3ccccc3)C2)cc1 = > 100 µM

Next compound, please.
For "CC(=O)[O-].[Zn].c1ccc(/C(=N\Nc2ccccn2)c2ccccn2)cc1" , write its TGI.
0.918 µM

---

Test system: COLO 205 colon
assayOverview: NCI tumour cell line growth inhibition, 48 h
assayMetric: TGI (µM)
Expressed in µM, but write only the number.

Record excerpt, results attached:
Cc1ccc(Nc2cc(C)nc(NCCCNc3ccnc4cc(Cl)ccc34)n2)cc1 = 2.77
CCc1ccc2nccc(NCCCN(C)C)c2c1[N+](=O)[O-] = 94.1
COc1cc(F)c(/C=C/c2cc(/C=C/c3cc(OC)c(OC)cc3F)n(-c3cc(F)cc(F)c3)n2)cc1OC = 26.8
Clc1cc(-c2ccccc2)nc2ccccc12 = 37.5

Next compound, please.
For O=C1CS(=O)(=O)C(c2cccc(Oc3ccccc3)c2)N1c1ccccc1 (stereo unspecified) , write its TGI.
37.2

---

System: NCI-H460 lung
assayOverview: NCI tumour cell line growth inhibition, 48 h
assayMetric: TGI

CN(C)CCNC(=O)c1ccc(Cl)c2cc3ccccc3nc12 = 3.9 µM
COc1ccc([C@]23CCN4COC[C@@H]([C@H]42)C2(CC3)OCC(C)(C)CO2)cc1OC = > 100 µM
O=C1CS(=O)(=O)C(c2cccc(Oc3ccccc3)c2)N1c1ccccc1 (centres undefined) = 38.4 µM

For CCCN(CCC)C1CCc2c(ccc3cc[nH]c23)C1 (centres undefined) , write its TGI.
> 100 µM

For CCOC(=O)CCC(NC(=O)Cc1ccc(Oc2nc3ccccc3nc2-c2ccccc2)cc1)C(=O)OCC (centres undefined) , write its TGI.
> 100 µM

For "COc1ccc(-c2cc(-c3cccc(NS(C)(=O)=O)c3)nc(N)c2C#N)cc1" , write its TGI.
10.8 µM

For O=[N+]([O-])c1ccc(N2N=C(c3ccc4ccccc4c3O)CC2c2ccc(Cl)cc2)c([N+](=O)[O-])c1 (centres undefined) , write its TGI.
> 100 µM

For Nc1nc(=O)n(C2OC(CO)C(O)C2O)c2ncc(-c3ccc(-c4ccccc4)cc3)nc12 (centres undefined) , write its TGI.
> 100 µM

For "CC12ON(P(=O)(c3ccccc3)c3ccccc3)C(C)(c3ccccc31)c1ccccc12" , write its TGI.
> 100 µM

Data provenance is PubChem BioAssay (NCI).
